System: UACC-257 melanoma
Assay: NCI tumour cell line growth inhibition, 48 h; in the data active = GI50 below about 0.43 µM; inactive = the rest
Allowed answers: active, inactive

# example entries with known answers
>  <COMPOUND>
O=c1c2cc(F)ccc2sc2c(NCCCN3CCCC3)nc3ccccc3c12

>  <GROUP>
inactive

$$$$
>  <COMPOUND>
CC(C)(C)c1ccc(S(=O)(=O)N[C@H]2CC[C@H]3[C@@H]4CCc5cc(O)ccc5[C@H]4CC[C@]23C)cc1

>  <GROUP>
inactive

$$$$
>  <COMPOUND>
CCCCCCCCCCCCCCCC(=O)N[C@H]1CCc2cc(OC)c(OC)c(OC)c2-c2ccc(SC)c(=O)cc21

>  <GROUP>
inactive

$$$$
>  <COMPOUND>
CCOC(=O)Cc1csc(NC(=O)C(OC(=O)c2ccc(N)cc2)c2ccccc2)n1 (centres undefined)

>  <GROUP>
inactive

$$$$

Per the assay record, what outcome was assigned to CC[C@@]1(OC(=O)CN(C)C)C(=O)OCc2c1cc1n(c2=O)Cc2cc3ccccc3nc2-1 ?
active

I'd appreciate the recorded outcome for Cc1csc(Nc2nc(-c3cccc(Cl)c3)nc(C(Cl)(Cl)Cl)n2)n1 from this test.
inactive

Record lookup: outcome of this test for COc1cc(C2c3cc4c(cc3[C@@H](Nc3cccc(O)c3)C3COC(=O)[C@H]23)OCO4)cc(OC)c1O (some centres undefined) ?
inactive

Assay outcome for O=c1[nH]c2cc(O)ccc2n2cc3c(F)cccc3c12 : what was it?
inactive

Look up the recorded call for CC(=O)Nc1ccc(-n2cnc3cc(-c4ccc(OCCN5CCCCC5)cc4)ccc32)cc1 in this test.
inactive

These entries and their values trace back to PubChem BioAssay (NCI).
